# ASSAY_METHOD_TEXT: reduction of polyQ htt aggregates in cells – imaging, exon1htt(103Q)mCFP cells, high-content imaging, primary screen (AID 483);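 also: compound exposure lasted 3 days before fixation; percent of the per-plate median nuclei count of sample wells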
# CONDITION_NOTES: exon1htt(103Q)mCFP cell line, aggregate imaging, at 2 µM; measured here: cell count, toxicity
Entries and their measured nuclei count follow.
Report as a plain number; the unit % is understood.

A selection of reference data follows.
>>> print(df.to_string())
                                   molecule    value_type  reported_value
0  c1ccc(CC2CCN(Cc3nc(-c4ccccc4)no3)CC2)cc1  nuclei count            81.6
1  COCCOC(=O)C1=C(C)N=c2s/c(=C\c3cccs3)c(=O)n2C1c1cccs1 (stereo not given)  nuclei count            98.1
2  O=C1CCCc2c1cc(C(=O)NCc1ccco1)c(=O)n2-c1ccc(Cl)cc1  nuclei count            91.5
3  COc1cccc(C(=O)Nc2cnc(NC(=O)c3ccco3)cc2C)c1  nuclei count            98.1

Now examine the next entry.
// query nuclei count value for entry COC(=O)c1sc(S(=O)(=O)Nc2ccc3cn[nH]c3c2)c(C(=O)OC)c1C
80

----------
Entries and their measured fluorescence slope follow.
# SYSTEM_NAME: Voltage-gated potassium channel subunit beta-2 (Rattus norvegicus) (UniProt P62483)
# Sequence (P62483 whole entry, looked up): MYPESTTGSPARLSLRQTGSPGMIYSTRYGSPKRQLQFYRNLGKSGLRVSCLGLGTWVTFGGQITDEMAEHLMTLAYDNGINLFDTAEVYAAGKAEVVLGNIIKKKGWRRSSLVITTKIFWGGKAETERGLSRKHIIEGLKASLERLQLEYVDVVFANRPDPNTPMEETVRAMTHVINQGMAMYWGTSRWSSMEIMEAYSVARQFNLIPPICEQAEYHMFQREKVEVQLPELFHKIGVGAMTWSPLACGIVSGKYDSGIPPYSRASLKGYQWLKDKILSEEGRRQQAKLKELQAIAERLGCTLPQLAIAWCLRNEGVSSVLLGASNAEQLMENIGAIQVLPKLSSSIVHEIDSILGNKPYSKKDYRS
# ASSAY_METHOD_TEXT: inhibitors of rat Kvbeta2 reductase activity – biochemical, NADPH fluorescence, primary screen (AID 622);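 also: slope of raw intensity against log time taken from 70 to 1610 s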
# CONDITION_NOTES: recombinant KvBeta, 4-cyanobenzaldehyde reduction, at 10 µM, stronger effect = higher value
Calls of active or inactive are those of the source.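 How the source made its calls: active means fluorescence slope higher than the sample average by over 3 SD (cut at about -0.22 in these data, passing the limit was not always enough); inactive means the rest.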

>>> print(df.to_string())
                                   molecule          value_type     reported_value
0       Cc1cc(C)nc(NS(=O)(=O)c2ccc(N)cc2)n1  fluorescence slope   -0.51 (inactive)
1  C=CCNc1nc(C2(C)CC3(CC(C)(C)OC3=O)C(=O)O2)cs1 (stereo unspecified)  fluorescence slope  -0.315 (inactive)
2  CCOC(=O)c1c(NC(=O)Cn2c(C)nc3ccccc32)sc2c1CCC2  fluorescence slope  -0.552 (inactive)
3               CN(C)CCOC(c1ccccc1)c1ccccc1  fluorescence slope  -0.465 (inactive)
4        CCn1c(NCc2ccc(N(C)C)cc2)nc2ccccc21  fluorescence slope   -0.31 (inactive)

Now examine the next entry.
// query fluorescence slope value for entry Cc1ccc(-c2c3c(=O)n(C)c(=O)n(C)c3cn2CCCN2CCOCC2)cc1
-0.414 (inactive)

----------
# ASSAY_METHOD_TEXT: blockers of RIG-like receptor reporter activation – cell-based, Sendai virus stimulus, luciferase, 10K MLSCN set, TLR/RLR signaling modifier project, primary screen (AID 602276);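 also: firefly luciferase from ISG56 promoter only with Renilla not read in this screen; 0% = Sendai virus plus DMSO and 100% = medium plus DMSO without virus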
# CONDITION_NOTES: HEK293 RL24 IRF3 luciferase reporter, at 10 µM, stronger effect = higher value
Decision: inhibition compared against 10%; not below it gives True, below it gives False.

# example entries with known answers
                                   compound  group_label
0      COC(=O)CN(c1ccc2c(c1)OCO2)S(C)(=O)=O        False
1  CC(C)c1ccc(NC(=O)C2CC(=O)N(C(C)C)C2)cc1 (stereo unspecified)         True
2  COc1ccc(CCn2c(N)c(C#N)c3nc4ccccc4nc32)cc1OC         True
3  Cc1ccc(NCc2nnc(SCC(=O)N3CCCCC3)n2CC2CCCO2)c(C)c1 (stereo unspecified)         True
4            COc1nc(N2CCOCC2)nc(-n2cccc2)n1        False

Consider the additional compound presented here.
Does the reported inhibition for CC1=C(C#N)C(=O)NC(C)(C)C1 fall at or above the 10% mark?
True

----------
# ASSAY_METHOD_TEXT: blockers of RIG-like receptor reporter activation – cell-based, Sendai virus stimulus, luciferase, 10K MLSCN set, TLR/RLR signaling modifier project, primary screen (AID 602276);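 also: firefly luciferase from ISG56 promoter only with Renilla not read in this screen; 0% = Sendai virus plus DMSO and 100% = medium plus DMSO without virus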
# CONDITION_NOTES: HEK293 RL24 IRF3 luciferase reporter, at 10 µM, stronger effect = higher value
VALUE_TYPE: inhibition (%)
Report as a plain number; the unit % is understood.

A selection of reference data follows.
>>> print(df.to_string())
                                   molecule  value_type  reported_value
0       O=C(Nc1ncnc2sc3c(c12)CCCCC3)c1ccco1  inhibition            21.8
1  COC(=O)c1cc(NC(=O)C2COc3ccccc3O2)cc(C(=O)OC)c1 (stereo unspecified)  inhibition            11.6
2  CC(C)(C)Nc1nc(OCC(F)(F)F)nc(OCC(F)(F)F)n1  inhibition            7.39
3           CCCCc1ccc(NC(=O)c2c(C)noc2C)cc1  inhibition           -8.01
4  COc1ccc(-n2c(SCC(=O)Nc3ccc(C(=O)O)cc3)nnc2-c2cccs2)cc1  inhibition           0.267

Now examine the next entry.
// query inhibition value for entry COc1ccccc1NC(=O)N1c2ccc(F)cc2CCC1C (stereo unspecified)
16.7

----------
# ASSAY_METHOD_TEXT: blockers of RIG-like receptor reporter activation – cell-based, Sendai virus stimulus, luciferase, 10K MLSCN set, TLR/RLR signaling modifier project, primary screen (AID 602276);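 also: firefly luciferase from ISG56 promoter only with Renilla not read in this screen; 0% = Sendai virus plus DMSO and 100% = medium plus DMSO without virus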
# CONDITION_NOTES: HEK293 RL24 IRF3 luciferase reporter, at 10 µM, stronger effect = higher value
Decision: inhibition compared against 10%; not below it gives criterion met, below it gives criterion not met.

# example entries with known answers
>>> print(df.to_string())
                                   molecule        group_label
0  Cc1n[nH]c(C)c1S(=O)(=O)N1CCN(c2ccccn2)CC1  criterion not met
1  COC(=O)c1[nH]c(C)c(/C(O)=C2\C(=O)C(=O)N(CCCN3CCOCC3)C2c2ccccn2)c1C (stereo unspecified)      criterion met
2  COc1ccccc1NS(=O)(=O)c1ccc(NC(=O)c2nc3ncccn3n2)cc1      criterion met
3  CC1Cc2ccccc2N1C(=O)Cc1cccs1 (stereo unspecified)  criterion not met
4  COc1cc(NC(=O)c2ccc(COCC(F)(F)F)o2)cc(OC)c1OC      criterion met

Does the reported inhibition for O=C(Nc1ccc(N2CCOCC2)c(F)c1)c1ccncc1 fall at or above the 10% mark?
criterion not met

Same lookup for N#CCSCC(=O)Nc1ccc(F)cc1 , please.
criterion met

Same lookup for O=C(c1ccco1)N1CCN(C(=O)c2ccc(Cn3cc(Br)cn3)o2)CC1 , please.
criterion met

Same lookup for Cc1ccccc1N(CC(=O)NCC1CCCO1)C(=O)C1(C)CC(=O)N=C2C=CC=CN21 (stereo unspecified) , please.
criterion not met

----------
# ASSAY_METHOD_TEXT: endothelial E-selectin expression blockers – imaging, HUVEC, immunofluorescence, MLSMR starter and 10KST1 sets, primary screen (AID 487);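 also: 100% = median nuclei count of all wells on the same plate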
# CONDITION_NOTES: HUVEC TNFalpha-induced E-selectin immunofluorescence imaging, at 2 µM; measured here: cell number, toxicity
VALUE_TYPE: nuclei count (%)
Report as a plain number; the unit % is understood.

A selection of reference data follows.
                                   compound    value_type  unit_annotation  reported_value
0  CCOC(=O)CSC1=Nc2ccccc2C2=NC(CC(=O)NCc3ccc(OC)cc3)C(=O)N12 (stereo unspecified)  nuclei count                %            91.7
1  O=C(Cn1cnc2c(nnn2-c2ccc(F)cc2)c1=O)NCc1ccco1  nuclei count                %             122
2       CCCn1c(=N)n(CC(=O)c2cccs2)c2ccccc21  nuclei count                %             114
3                 CN(C)C(=O)Oc1ccc[n+](C)c1  nuclei count                %             132
4                    Oc1c(I)cc(Cl)c2cccnc12  nuclei count                %             108

// query nuclei count value for entry CCCn1c(=O)c2ccccc2n2c(SCc3cc(=O)n4ccsc4n3)nnc12
136

----------
# ASSAY_METHOD_TEXT: TLR3 IRF3 reporter activation blockers – cell-based, poly I:C stimulus, luciferase, 10K MLSCN set, primary screen (AID 602277)
# CONDITION_NOTES: HEK293-TLR3 RL24 IRF3 luciferase reporter, at 10 µM, stronger effect = higher value
VALUE_TYPE: inhibition (%)
Report as a plain number; the unit % is understood.

A selection of reference data follows.
>>> print(df.to_string())
                                   compound  reported_value
0  O=S(=O)(NCCc1ccccc1F)c1cccc(S(=O)(=O)N2CCOCC2)c1              13
1  COc1ccccc1C(=O)Nc1ccc(N2CCN(S(C)(=O)=O)CC2)cc1           -50.2
2     Cc1nc(CNS(=O)(=O)c2ccc3c(c2)OCCO3)cs1           -38.6
3  CC(Oc1ccccc1)C(=O)N1CCCc2ccccc21 (centres undefined)            29.5
4     CCn1c(SCC(N)=O)nc2c1c(=O)n(C)c(=O)n2C            21.1

// query inhibition value for entry O=C(NCC1CCCO1)C1CC(c2ccc(Cl)c(Cl)c2)=NO1 (centres undefined)
-3.62

Same lookup for Cc1ccc(Oc2ccc(-c3nc(N)nc(N)n3)cc2)cc1 , please.
11.6

Same lookup for CCn1c(=O)n(CC(=O)NCc2ccccc2OC)c(=O)c2ccccc21 , please.
23.1

Same lookup for Cc1cc(C2C(C#N)=C(N)SC(N)=C2C#N)c(C)s1 , please.
20.2

Same lookup for CCCOc1cc(C)c(S(=O)(=O)N2CCN(C)CC2)cc1C , please.
10.4

Same lookup for CC(=O)Nc1ccc(Cl)c(C(N)=O)c1 , please.
23.4

Same lookup for COC(=O)Cc1c(C)nc2nc(-c3ccco3)[nH]n2c1=O , please.
19.1

Same lookup for CC(C)(C)NC(=O)Cn1nnc(-c2cccs2)n1 , please.
-13

// data source = PubChem BioAssay
